These data points were gathered from PubChem BioAssay (NCATS).

molecular target: Cytochrome P450 2D6 (Homo sapiens); assay: Cytochrome P450 family 2 subfamily D member 6 (CYP2D6) small molecule antagonists: luciferase biochemical (cell-free) qHTS assay (AID 1645840); details: P450-Glo CYP2D6 enzyme, luciferin luminescence, 1 h; series mostly up to 57.4 µM; further: nearly all actives have a fitted effect of over 55% in size
Inconclusive results are not listed. Active and inactive are the calls of the source. The call rests on the fitted dose curve; in most records, active means well fitted inhibition curve with a large enough effect in the repeat runs; inconclusive means weak or mixed curves; inactive means flat fitted curve, though single readings scatter.
Could you please pick one outcome from this set? y for active, n for inactive

Some solved entries appear below for comparison.
# MOLECULE, CLASS ASSIGNMENT
records = [
    ("CC1CCN(CCCC(=O)c2ccc(F)cc2)CC1", "y"),
    ("Cc1cc(C)c(NC(=O)CN(CC(=O)O)CC(=O)O)c(C)c1Br", "n"),
    ("CCc1cccc(CC)c1NC(=O)CN(CC(=O)O)CC(=O)O", "n"),
    ("O=C(NCC(O)CO)c1c(I)c(C(=O)NCC(O)CO)c(I)c(N(CCO)C(=O)CO)c1I (stereo unspecified)", "n"),
    ("Nc1ncnc(Nc2ccccc2)n1", "n"),
    ("CCCC(O)C(CC)CO (stereo unspecified)", "n"),
]

Name the outcome recorded for C[C@H]1COc2c(C3(N)CC3)c(F)cc3c(=O)c(C(=O)O)cn1c23 in the assay.
n

Name the outcome recorded for CCCCCCCC(=O)OCC(COC(=O)CCCCCCC)OC(=O)CCCCCCC in the assay.
n

Name the outcome recorded for O=C(O)c1cc(=O)c2ccccc2o1 in the assay.
n

Name the outcome recorded for NS(=O)(=O)c1cc(-c2nn[nH]n2)c(NCc2cccs2)cc1Cl in the assay.
n

Name the outcome recorded for O=C(O)c1ccc[n+]([O-])c1 in the assay.
n

Name the outcome recorded for CC(=O)N(CC(O)CN(C(C)=O)c1c(I)c(C(=O)NCC(O)CO)c(I)c(C(=O)NCC(O)CO)c1I)c1c(I)c(C(=O)NCC(O)CO)c(I)c(C(=O)NCC(O)CO)c1I (stereo unspecified) in the assay.
n

Name the outcome recorded for CC(=O)SC[C@@H](Cc1ccccc1)C(=O)NCC(=O)OCc1ccccc1 in the assay.
y

Name the outcome recorded for Cc1cc(-n2nc3ccc(Cl)cc3n2)c(O)c(C(C)(C)C)c1 in the assay.
n
